Taken from ChEMBL document CHEMBL3797190.

assay: Cytotoxicity against human HuH7 cells assessed as cell viability at 20 uM after 48 hrs by MTS assay; type: cell-based, Huh-7; settings: read-out: Activity
Binned viability at 48 h, 20 µM; ranges: low group: < 40%; middle group: ≥ 40% and < 50%; high group: ≥ 50%

• COc1cccc(-c2nnc(SCc3cc([N+](=O)[O-])cc([N+](=O)[O-])c3)s2)c1 = low group
• CO[C@H]1/C=C/O[C@@]2(C)Oc3c(C)c(O)c4c(O)c(c(/C=N/N5CCN(C)CC5)c(O)c4c3C2=O)NC(=O)/C(C)=C\C=C\[C@H](C)[C@H](O)[C@@H](C)[C@@H](O)[C@@H](C)[C@H](OC(C)=O)[C@@H]1C [RIFAMPIN] = high group
• COc1cccc(-c2nnc(SCc3cc([N+](=O)[O-])cc([N+](=O)[O-])c3)o2)c1 = middle group
• O=[N+]([O-])c1cc(CSc2nnc(-c3ccc(Cl)cc3Cl)o2)cc([N+](=O)[O-])c1 = low group
• COc1ccc(-c2nnc(SCc3ccc([N+](=O)[O-])cc3[N+](=O)[O-])o2)cc1 = high group
• COc1ccc(-c2nnc(SCc3cc([N+](=O)[O-])cc([N+](=O)[O-])c3)s2)cc1 = high group
• O=[N+]([O-])c1cc(CSc2nnc(-c3ccccc3)o2)cc([N+](=O)[O-])c1 = high group
• COc1ccc(-c2nnc(SCc3cc([N+](=O)[O-])cc([N+](=O)[O-])c3)o2)cc1 = low group
• O=[N+]([O-])c1cc(CSc2nnc(-c3cccc(Cl)c3)o2)cc([N+](=O)[O-])c1 = middle group
• O=[N+]([O-])c1cc(CSc2nnc(-c3cccc(Cl)c3)s2)cc([N+](=O)[O-])c1 = low group

Read the next record carefully.
Class? Entry: O=[N+]([O-])c1ccc(CSc2nnc(-c3ccccc3)o2)c([N+](=O)[O-])c1
high group

###

test: Cytotoxicity against primary human hepatocytes assessed as cell viability at 20 uM after 48 hrs by MTS assay; type: cell-based, Hepatocyte; settings: read-out: Activity
measure.name: viability at 48 h, 20 µM (%)
Give bare numbers, in %.

Here's what some known entries look like.
* COc1cccc(-c2nnc(SCc3cc([N+](=O)[O-])cc([N+](=O)[O-])c3)s2)c1 | 121
* CO[C@H]1/C=C/O[C@@]2(C)Oc3c(C)c(O)c4c(O)c(c(/C=N/N5CCN(C)CC5)c(O)c4c3C2=O)NC(=O)/C(C)=C\C=C\[C@H](C)[C@H](O)[C@@H](C)[C@@H](O)[C@@H](C)[C@H](OC(C)=O)[C@@H]1C | 123
* O=[N+]([O-])c1cc(CSc2nnc(-c3ccc(Cl)cc3Cl)o2)cc([N+](=O)[O-])c1 | 81.1

Provide viability at 48 h, 20 µM values for the following items, in order.
1. Cc1ccc(-c2nnc(SCc3cc([N+](=O)[O-])cc([N+](=O)[O-])c3)o2)cc1
2. O=[N+]([O-])c1cc(CSc2nnc(-c3ccc(Cl)cc3)s2)cc([N+](=O)[O-])c1

[95.1, 102]

###

tested on: Salmonella typhimurium; experiment: Mutagenic activity in Salmonella typhimurium TA98 assessed as reverse mutation at 30 uM by Ames test; assay type: toxicity, organism-based; details: salmonella enterica subsp. enterica serovar typhimurium
measure.name: Activity

- O=[N+]([O-])c1ccc(CSc2nnc(-c3ccccc3)o2)c([N+](=O)[O-])c1: Toxic
- O=[N+]([O-])c1cc(CSc2nnc(-c3ccc(Cl)cc3)s2)cc([N+](=O)[O-])c1: Non-toxic
- Cc1ccc(-c2nnc(SCc3cc([N+](=O)[O-])cc([N+](=O)[O-])c3)o2)cc1: Non-toxic
- O=[N+]([O-])c1cc(CSc2nnc(-c3ccccc3)o2)cc([N+](=O)[O-])c1: Toxic

# input for lookup
Lab request: please report Activity under test system Salmonella typhimurium for COc1cccc(-c2nnc(SCc3cc([N+](=O)[O-])cc([N+](=O)[O-])c3)o2)c1
Non-toxic

###

Give MIC99 for every item shown.
tested on: Mycobacterium kansasii; assay: Antimycobacterial activity against Mycobacterium kansasii CNCTC My 235/80 after 7 days by microdilution method; format: functional; details: CNCTC My 235/80, 168 h
Numbers only, in µM.

// worked examples, MIC99 included
- COc1ccc(-c2nnc(SCc3cc([N+](=O)[O-])cc([N+](=O)[O-])c3)s2)cc1: 0.25
- COc1ccc(-c2nnc(SCc3ccc([N+](=O)[O-])cc3[N+](=O)[O-])o2)cc1: 2
- O=[N+]([O-])c1ccc(CSc2nnc(-c3ccccc3)o2)c([N+](=O)[O-])c1: 4
- COc1cccc(-c2nnc(SCc3cc([N+](=O)[O-])cc([N+](=O)[O-])c3)s2)c1: 0.25
- O=[N+]([O-])c1cc(CSc2nnc(-c3ccc(Cl)cc3Cl)o2)cc([N+](=O)[O-])c1: 0.125

For every item in the list below, what is its measured MIC99?
1. O=[N+]([O-])c1cc(CSc2nnc(-c3ccncc3)o2)cc([N+](=O)[O-])c1
2. COc1cccc(-c2nnc(SCc3cc([N+](=O)[O-])cc([N+](=O)[O-])c3)o2)c1
3. O=[N+]([O-])c1ccc(-c2nnc(SCc3cc([N+](=O)[O-])cc(C(F)(F)F)c3)o2)cc1
4. O=[N+]([O-])c1cc(CSc2nnc(-c3ccncc3)s2)cc([N+](=O)[O-])c1
5. Nc1cc(CSc2nnc(-c3ccc([N+](=O)[O-])cc3)s2)cc([N+](=O)[O-])c1
6. O=[N+]([O-])c1ccc(CSc2nnc(-c3ccncc3)o2)c([N+](=O)[O-])c1

[1, 0.125, 16, 0.5, 250, 16]

For every record below, what is its MIC99?
1. O=[N+]([O-])c1cc(CSc2nnc(-c3ccc(O)cc3)o2)cc([N+](=O)[O-])c1
2. Cc1ccc(-c2nnc(SCc3cc([N+](=O)[O-])cc([N+](=O)[O-])c3)o2)cc1
3. Cc1cc(C)cc(-c2nnc(SCc3cc([N+](=O)[O-])cc([N+](=O)[O-])c3)o2)c1

[4, 0.06, 0.25]

Please report MIC99 for every entry that follows.
1. O=[N+]([O-])c1cc(CSc2nnc(-c3ccc(Cl)cc3)s2)cc([N+](=O)[O-])c1
2. Cc1cc(C)cc(-c2nnc(SCc3cc([N+](=O)[O-])cc([N+](=O)[O-])c3)s2)c1
3. O=[N+]([O-])c1cc(CSc2nnc(-c3ccccc3)s2)cc([N+](=O)[O-])c1
4. Cc1nnc(SCc2cc([N+](=O)[O-])cc([N+](=O)[O-])c2)o1
5. O=[N+]([O-])c1ccc(CSc2nnc(-c3ccc(Cl)cc3)s2)c([N+](=O)[O-])c1
6. O=[N+]([O-])c1cc(CSc2nnc(-c3ccccc3Cl)s2)cc([N+](=O)[O-])c1
7. O=[N+]([O-])c1ccc(CSc2nnc(-c3ccc([N+](=O)[O-])cc3)o2)cc1

0.125
0.25
0.25
4
1
0.5
250

// for each compound in input: emit MIC99
1. O=[N+]([O-])c1ccc(CSc2nnc(-c3ccc(Cl)cc3)o2)c([N+](=O)[O-])c1
2. Nc1cc(N)cc(CSc2nnc(-c3ccc([N+](=O)[O-])cc3)s2)c1
3. O=[N+]([O-])c1cc(CSc2nnc(-c3cccc(Cl)c3)s2)cc([N+](=O)[O-])c1
4. O=[N+]([O-])c1cc(CSc2nnc(-c3cccc(Cl)c3)o2)cc([N+](=O)[O-])c1
5. COc1cc(OC)cc(-c2nnc(SCc3cc([N+](=O)[O-])cc([N+](=O)[O-])c3)o2)c1
6. CCCCCCCCCCCc1nnc(SCc2cc([N+](=O)[O-])cc([N+](=O)[O-])c2)o1
7. O=[N+]([O-])c1cc(CSc2nnc(-c3ccccc3Cl)o2)cc([N+](=O)[O-])c1

1: 2; 2: 250; 3: 0.25; 4: 0.125; 5: 0.125; 6: 0.125; 7: 0.125

Hey, can you go through the list below and give me MIC99 for every item?
1. Cc1ccc(-c2nnc(SCc3cc([N+](=O)[O-])cc([N+](=O)[O-])c3)s2)cc1
2. O=[N+]([O-])c1ccc(CSc2nnc(-c3ccc([N+](=O)[O-])cc3)s2)cc1

1: 0.5; 2: 250

Each compound below has a reported value. Please supply its MIC99.
1. O=[N+]([O-])c1ccc(CSc2nnc(-c3ccccc3)s2)c([N+](=O)[O-])c1
2. Cc1nnc(SCc2cc([N+](=O)[O-])cc([N+](=O)[O-])c2)s1

[1, 4]

###

test system: Mycobacterium avium; assay: Antimycobacterial activity against Mycobacterium avium CNCTC My 330/88 after 14 days by microdilution method; format: functional; details: CNCTC My 330/88, 336 h
measure.name: MIC99

Past entries and their recorded results:
- Nc1cc(N)cc(CSc2nnc(-c3ccc([N+](=O)[O-])cc3)s2)c1: 250 µM
- O=[N+]([O-])c1ccc(CSc2nnc(-c3ccccc3)o2)c([N+](=O)[O-])c1: > 16 µM
- NNC(=O)c1ccncc1: > 250 µM
- Cc1ccc(-c2nnc(SCc3cc([N+](=O)[O-])cc([N+](=O)[O-])c3)s2)cc1: > 125 µM

Can you look up MIC99 on Mycobacterium avium for O=[N+]([O-])c1cc(CSc2nnc(-c3ccncc3)s2)cc([N+](=O)[O-])c1 ?
> 125 µM
